Assay: Primary qHTS to identify inhibitors of SARS-CoV-2 cell entry (AID 1645846); also: nearly all actives have a fitted effect of over 45% in size
Conditions: SARS-CoV-2 pseudovirus cell entry assay, luminescence; at 57.1 µM (top of the series) unless noted
Inconclusive results are not listed.
Mark rule met for reported activity change, negative = inhibition of -20% or greater; mark rule not met for anything smaller.

// known answers, use as guide
Nc1ncnc2ccccc12 | rule met
CCn1c(C(=O)N(C2CC2)C2CC2)cc2c3c(ncn3C)c(Nc3cc(C)n(C)n3)nc21 | rule met
CC(C(C)N1CC(=O)NC(=O)C1)N1CC(=O)NC(=O)C1 (stereo not drawn) | rule not met
O=C1Nc2ccc(I)cc2/C1=C/c1cc(Br)c(O)c(Br)c1 | rule met
CCC(C)N(C)C(=O)c1cc2ccccc2c(-c2ccccc2Cl)n1 (stereo not drawn) | rule met

Could you verify whether the entry CC1=C(C(=O)Nc2cc3cn[nH]c3cc2F)C(c2ccc(C(F)(F)F)cc2)CC(=O)N1 (stereo not drawn) shows activity change, negative = inhibition of no less than -20%?
rule not met

Check if activity change, negative = inhibition >= -20% (inclusive). Item: Cc1cc(O)c2c(c1)C(=O)c1cccc(O)c1C2=O
rule met

----------
Assay: Primary qHTS for inhibitors of nuclear receptor binding SET domain protein 2 (NSD2) in an RCH-ACV wild type WT cells (2C) (AID 1645877); also: nearly all actives have a fitted effect of over 70% in size
Settings: RCH-ACV (leukaemia line) NSD2 WT (2C) viability, CellTiter-Glo, 72 h; series mostly up to 44.9 µM
Records with an inconclusive call do not appear. The source made the active and inactive calls. Calls come from the whole dose curve; as a rule, active = well fitted inhibition curve with a large enough effect; inconclusive = small, poorly fitted or top-dose-only effect; inactive = no such curve, though single readings can be large or run the other way.
Just give me one of these, please: yes (1) = active, no (0) = inactive

Below, 6 compounds whose answers are already recorded.
COc1ccn(C)c(=O)c1C#N | no (0)
C/C1=C/[C@@H](C)C/C=C/[C@H]2[C@@H]3O[C@]3(C)[C@@H](C)[C@H]3[C@H](Cc4c[nH]c5ccccc45)NC(=O)[C@]32C(=O)/C=C\C(=O)[C@@H]1O | yes (1)
CC1CCCC(O)CCC/C=C/c2cc(O)cc(O)c2C(=O)O1 (configuration not stated) | yes (1)
CC(=O)O[C@H]1C[C@]2(O)[C@@H]3CC[C@@H]4C[C@@H](O)CC[C@]4(C)[C@H]3CC[C@]2(C)[C@H]1c1ccc(=O)oc1 | yes (1)
CN1C(=O)[C@]23CC4C(C)(C)[C@@]5(C[C@@]41CN2CC[C@@]3(C)O)C(=O)Nc1c5ccc2c1OC=CC(C)(C)O2 (some centres not stated) | no (0)
COc1cc2c(c(OC)c1OC)-c1ccc(SC)c(=O)cc1[C@@H](NC(C)=O)CC2 | yes (1)

Record request — test call for C[C@H]1O[C@@H](O[C@H]2CC[C@]3(C=O)C4CC[C@]5(C)[C@@H](C6=CC(=O)OC6)CC[C@]5(O)[C@@H]4CC[C@]3(O)C2)C[C@@H](O)[C@@H]1O (some centres not stated)
yes (1)

----------
Assay: qHTS for Inhibitors of the Functional Ribonucleoprotein Complex (vRNP) of Lassa (LASV) Arenavirus: LASV Primary Screen - GLuc reporter signal (AID 1347082); also: nearly all actives have a fitted effect of over 60% in size
Conditions: LASV minigenome vRNP, Gaussia luciferase reporter; series mostly up to 57.5 µM
Results filed as inconclusive are left out. The source made the active and inactive calls. The call rests on the fitted dose curve; tested in HEK293 reporter line.
Thanks in advance; please answer with one of these: active, inactive

Cc1cc(Nc2ncc3c(n2)N(C)C(=O)N(c2cc(NC(=O)c4cccc(C(F)(F)F)c4)ccc2C)C3)n(C)n1 | active
CCCOc1ccc2[nH]cc(C3=CCNCC3)c2n1 | inactive
c1cncc([C@@H]2CCCCN2)c1 | inactive
COc1cccc(OC)c1 | inactive
COc1ccc(-c2ccc3ncc4c(c3c2)n(-c2ccc(N3CCNCC3)c(C(F)(F)F)c2)c(=O)n4C)cn1 | active
CNC(=O)c1nn(C)c2c1C(C)(C)Cc1cnc(Nc3ccc(N4CCN(C)CC4)cc3)nc1-2 | active

Which outcome did this test record for the compound COc1cc(C(O)CO)ccc1O (centres undefined) ?
inactive

# fetch the recorded call for CCCCCCCCCCCCCCCCCCCCCCCCCCCCCC here
inactive

Call for entry N#CC(=C1Nc2ccccc2S1)c1ccnc(OCc2ccc(CN3CCOCC3)cc2)n1 :
active

GET /call?item= CC1C(=O)OC2C1CCC1(C)CCC(=O)C(C)C21 (centres undefined) returns the recorded outcome of this test.
inactive

Could you kindly confirm the outcome this assay logged for COc1ccc(C2Sc3ccccc3N(CCN(C)C)C(=O)C2OC(C)=O)cc1 (centres undefined) ?
inactive

Fill in: this test's call for C=CCc1ccc(O)c(-c2ccc(O)c(CC=C)c2)c1 is ___
inactive

I would be grateful if you could indicate the recorded call for COc1c(O)cc(O)c2c(=O)cc(-c3ccccc3)oc12 .
inactive

Entry CC1=CCC(=C(C)C)CC1 : call = ?
inactive

Recorded test call requested for C[C@@H]1CCN(C(=O)CC#N)C[C@H]1N(C)c1ncnc2[nH]ccc12
inactive

Please state the recorded outcome for this compound: N[C@@H](Cc1c[nH]c2ccccc12)C(=O)O
inactive

Look up the recorded call for O=c1[nH]c(O)c(/C=C2\C=Nc3ccccc32)[nH]1 in this test.
inactive

Which outcome was entered for the compound N#C/C(=C\c1ccc(-c2cc(Cl)ccc2Cl)o1)C(=O)Nc1cccc2ncccc12 in this test?
inactive

So what was the verdict on CC1(C)C(CO)=CC(=O)C2=C1SCC(=O)N2 in this test?
inactive

Query: recorded result category for CCCCC/C=C\CC(O)/C=C/c1cccc(CC(O)CCCCO)n1 (centres undefined) in this test
inactive

I would be grateful if you could indicate the recorded call for O=C(Nc1ccccc1Br)N[C@@H]1CCN(c2ccc(C(F)(F)F)cn2)C1 .
inactive

Recorded call for O=C(OCCN1CCOCC1)C1(c2ccccc2)CCCCC1 ?
inactive

Recorded call for CC(C)(O)[C@H](O)Cc1cc2ccc(=O)oc2cc1O[C@@H]1O[C@H](CO)[C@@H](O)[C@H](O)[C@H]1O ?
inactive

----------
Assay: qHTS for Inhibitors of the Functional Ribonucleoprotein Complex (vRNP) of Lassa (LASV) Arenavirus: Viability assay - alamar blue signal for LASV Primary Screen (AID 1347083); also: nearly all actives have a fitted effect of over 80% in size
Settings: cell viability, alamar blue fluorescence (LASV minigenome counter-screen); series mostly up to 57.5 µM
Results filed as inconclusive are left out. Calls of active or inactive are those of the source. Calls come from the whole dose curve; tested in HEK293 reporter line.
Choose one outcome from this list and give only that: 1 for active, -1 for inactive

O=C(O)CNC(=O)C(CS)Cc1ccccc1 (stereo unspecified) | -1

Outcome? CNC(=O)c1ccc(-c2cnc3ncc(Cc4ccc5ncccc5c4)n3n2)cc1F
-1

Hey, what did the test say about CC[C@H](C)/C=C(C)/C=C/C1=CC2=CC(=O)[C@]3(C)OC(=O)[C@@H](C(C)=O)[C@@H]3C2=CO1 ?
-1

Each compound tested received a call. Report the one for Cn1cccc1-c1cccnc1 .
-1

So what was the verdict on CCCC[C@@]1(C2CCCC2)Cc2cc(OCC(=O)O)c(Cl)c(Cl)c2C1=O in this test?
-1

What is the recorded call for this compound in the test? COc1c2c(c(C)c3c1C(=O)OC3)O[C@@]1(C)CC[C@@]3(O)C(C)(C)OC(=O)CC[C@]3(C)[C@H]1C2
-1

Recorded call for CC1(C)C2=CCCC(C)(C)[C@]23CC[C@H]1C3 ?
-1

What did the test return for Cc1ccc(C(=O)N(CCCN)[C@@H](c2oc3cc(Cl)ccc3c(=O)c2Cc2ccccc2)C(C)C)cc1 ?
-1

Could you check what this test reported for NC(=O)c1ncn([C@@H]2O[C@H](CO)[C@@H](O)[C@@H]2O)c1N ?
-1

Lab log entry: NC1(C(=O)N[C@@H](CCO)c2ccc(Cl)cc2)CCN(c2ncnc3[nH]ccc23)CC1 — outcome as called in the assay?
1

Status in this test for C[C@]12CC[C@@H]3c4ccc(O)cc4C[C@@H](CCCCCCCCCS(=O)CCCC(F)(F)C(F)(F)F)[C@H]3[C@H]1CC[C@H]2O (stereo partly specified) ?
-1

----------
Biological target: Nucleoprotein (Lymphocytic choriomeningitis virus (strain Armstrong))
Test: qHTS for Inhibitors of the Functional Ribonucleoprotein Complex (vRNP) of Lymphocytic Choriomeningitis Arenaviruses (LCMV): LCMV Primary Screen - GLuc reporter signal (AID 1347086); also: nearly all actives have a fitted effect of over 70% in size
Settings: LCMV minigenome vRNP cell assay, Gaussia luciferase reporter; series mostly up to 57.5 µM
Records with an inconclusive call do not appear. Active and inactive are the calls of the source. Calls follow the shape of the full dose curve.
A correct response names exactly one class from active, inactive

Consider the worked cases shown below.
NC(=O)N1CCC(CC(=O)N2CCC([C@H]3c4ncc(Br)cc4CCc4cc(Cl)cc(Br)c43)CC2)CC1 | active
C[C@]12CCC(=O)C=C1[C@@H]1CC1[C@H]1[C@H]3[C@@H]4C[C@H]4[C@@]4(CCC(=O)O4)[C@@]3(C)CC[C@H]12 (stereo partly drawn) | inactive
CCN(CC)CCOC(=O)c1cc(Cl)c(N)cc1OC | inactive
CCCCC(C)/C=C(C)/C=C(\C)C(=O)NC1=CC(O)(/C=C/C=C/C=C/C(=O)NC2=C(O)CCC2=O)C2OC2C1=O (stereo not drawn) | inactive
O=C1c2cccc(O)c2C(=O)c2c(O)cc(CO)cc21 | inactive

Would you mind telling me which call this test gave C[C@@H]1C[C@H]2[C@@H]3C[C@H](F)C4=CC(=O)C=C[C@@]4(C)[C@]3(F)[C@H](O)C[C@]2(C)[C@@]1(O)C(=O)CO ?
inactive

Could you kindly confirm the outcome this assay logged for Nc1ncnc2c1c(I)cn2[C@@H]1C[C@H](N)[C@@H](O)[C@H]1O ?
inactive

Could you check what this test reported for CCCCCCCCCCCCCCCC(=O)OC[C@@H](NC(=O)C(Cl)Cl)[C@H](O)c1ccc([N+](=O)[O-])cc1 ?
inactive

Hi, sorry to bother you, what did the test record for CO[C@H]1C=CO[C@@]2(C)Oc3c(C)c(O)c4c(O)c(c(C=NN5CCN(C)CC5)c(O)c4c3C2=O)NC(=O)C(C)=CC=C[C@H](C)[C@H](O)[C@@H](C)[C@@H](O)[C@@H](C)[C@H](OC(C)=O)[C@H]1C ?
inactive

Please indicate how the test categorized CCN1C[C@]2(C)CC[C@H](OC)[C@@]34[C@H]1C1(OCO[C@@]15C[C@H](OC)C1C[C@]3(O)C5[C@H]1OC)[C@@H](O)[C@H]24 .
inactive

Per the assay record, what outcome was assigned to O=C(NCCCCNCCCNC(=O)c1ccccc1)c1ccccc1 ?
inactive

# outcome recorded in this test, key = N#CC(c1ccc(Cl)cc1)c1c(Cl)cc(-n2ncc(=O)[nH]c2=O)cc1Cl (stereo not drawn)
inactive
